# System: Mycoplasma mycoides subsp. mycoides SC
# experiment.notes: Antimicrobial activity against Mycoplasma mycoides subsp. mycoides SC KH3J after 2 hrs
# Assay type: functional
Square brackets hold non-standard residues; d marks the D form. Peptide text beside a SMILES is read from it. Phe(ol) = N[C@H](CO)Cc1ccccc1; Aib = CC(C)(N)C(=O)O
property.label: MIC

Take a look at these entries with their results.
compound	property.label	experimental.result
CC(=O)NC(C)(C)C(=O)N[C@@H](C)C(=O)NC(C)(C)C(=O)N[C@@H](C)C(=O)NC(C)(C)C(=O)N[C@@H](C)C(=O)N[C@@H](CCC(N)=O)C(=O)NC(C)(C)C(=O)N[C@H](C(=O)NC(C)(C)C(=O)NCC(=O)N[C@@H](CC(C)C)C(=O)NC(C)(C)C(=O)N1CCC[C@H]1C(=O)N[C@H](C(=O)NC(C)(C)C(=O)NC(C)(C)C(=O)N[C@@H](CCC(=O)O)C(=O)N[C@@H](CCC(N)=O)C(=O)N[C@H](CO)Cc1ccccc1)C(C)C)C(C)C (Ac-[Aib]A[Aib]A[Aib]AQ[Aib]V[Aib]GL[Aib]PV[Aib][Aib]EQ[Phe(ol)])	MIC	12.5 µM
CC[C@@](C)(NC(=O)C(C)(C)NC(=O)[C@@H](NC(=O)[C@@H]1CCCN1C(=O)C(C)(C)NC(=O)[C@H](CC(C)C)NC(=O)CNC(=O)C(C)(C)NC(=O)[C@@H](NC(=O)C(C)(C)NC(=O)[C@H](CCC(N)=O)NC(=O)C(C)(C)NC(=O)C(C)(C)NC(=O)[C@H](C)NC(=O)C(C)(C)NC(=O)[C@H](C)NC(=O)C(C)(C)NC(C)=O)C(C)C)C(C)C)C(=O)N[C@@H](CCC(N)=O)C(=O)N[C@@H](CCC(N)=O)C(=O)N[C@H](CO)Cc1ccccc1	MIC	6.25 µM

## Input Which MIC value is on record for CC[C@@](C)(NC(=O)C(C)(C)NC(=O)[C@H](C)NC(=O)[C@H](CO)NC(=O)C(C)(C)NC(C)=O)C(=O)N[C@@H](CCC(N)=O)C(=O)NC(C)(C)C(=O)N[C@H](C(=O)NC(C)(C)C(=O)NCC(=O)N[C@@H](CC(C)C)C(=O)NC(C)(C)C(=O)N1CCC[C@H]1C(=O)N[C@@H](CC(C)C)C(=O)NC(C)(C)C(=O)NC(C)(C)C(=O)N[C@@H](CCC(N)=O)C(=O)N[C@H](CO)Cc1ccccc1)C(C)C ?
## Output 12.5 µM
